TGT: UniProt Q6PSM0
Sequence (Q6PSM0 1-1272): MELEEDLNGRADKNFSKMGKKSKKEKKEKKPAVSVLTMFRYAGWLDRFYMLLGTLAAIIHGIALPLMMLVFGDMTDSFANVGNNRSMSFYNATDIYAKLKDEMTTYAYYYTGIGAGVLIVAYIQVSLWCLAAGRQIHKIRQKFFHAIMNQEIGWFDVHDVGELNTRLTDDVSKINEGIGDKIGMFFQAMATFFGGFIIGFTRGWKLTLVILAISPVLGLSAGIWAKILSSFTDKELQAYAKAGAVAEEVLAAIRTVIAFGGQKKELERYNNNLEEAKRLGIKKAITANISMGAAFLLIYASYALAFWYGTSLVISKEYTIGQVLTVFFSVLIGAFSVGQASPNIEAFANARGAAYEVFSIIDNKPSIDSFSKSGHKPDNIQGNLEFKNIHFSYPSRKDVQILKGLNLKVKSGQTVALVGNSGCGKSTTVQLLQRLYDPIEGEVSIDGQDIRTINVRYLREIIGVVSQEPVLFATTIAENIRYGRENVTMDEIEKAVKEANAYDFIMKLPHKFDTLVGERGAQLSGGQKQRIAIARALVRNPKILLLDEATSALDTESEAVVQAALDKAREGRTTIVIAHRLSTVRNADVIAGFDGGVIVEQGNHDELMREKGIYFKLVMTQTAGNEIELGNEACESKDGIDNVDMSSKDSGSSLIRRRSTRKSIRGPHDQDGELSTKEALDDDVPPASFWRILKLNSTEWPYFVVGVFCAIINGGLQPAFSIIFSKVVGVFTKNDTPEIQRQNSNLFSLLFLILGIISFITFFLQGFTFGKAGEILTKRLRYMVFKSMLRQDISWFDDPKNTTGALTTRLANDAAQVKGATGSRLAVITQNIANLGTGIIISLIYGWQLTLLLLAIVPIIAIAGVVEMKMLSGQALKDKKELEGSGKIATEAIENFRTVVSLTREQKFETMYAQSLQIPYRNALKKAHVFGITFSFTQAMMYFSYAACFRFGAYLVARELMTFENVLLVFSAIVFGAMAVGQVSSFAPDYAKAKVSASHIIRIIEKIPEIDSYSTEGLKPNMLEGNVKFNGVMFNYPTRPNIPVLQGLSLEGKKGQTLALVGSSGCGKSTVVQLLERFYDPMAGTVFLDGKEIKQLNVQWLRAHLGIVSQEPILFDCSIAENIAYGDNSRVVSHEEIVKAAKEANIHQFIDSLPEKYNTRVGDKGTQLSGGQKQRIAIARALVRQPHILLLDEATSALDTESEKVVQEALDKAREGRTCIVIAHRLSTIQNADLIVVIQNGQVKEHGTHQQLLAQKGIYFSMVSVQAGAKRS
EXPERIMENT_NOTES: P-Glycoprotein (P-gp) Efflux Susceptibility Assay
Format: in vitro ADME
ASSAY_SETUP: LLC-PK1, pH 7.4; rat LLC-Mdr1a cells, B-A/A-B Papp ratio at 3 h; method 0.1 μM; read-out: P-gp efflux assay (rMDR1a BAAB)
MEASUREMENT_TYPE: efflux ratio at 3 h

The cases that follow already have their efflux ratio at 3 h on record.
| MOLECULE | efflux ratio at 3 h |
| --- | --- |
| C[C@@]1(c2cc(Nc3ncnc4cc(C#N)cnc34)ccc2F)CS(=O)(=O)[C@@](C)(C2CC2)C(N)=N1 | 31 |
| COc1cnc2c(Nc3ccc(F)c([C@]4(C)CS(=O)(=O)[C@@](C)(C5CC5)C(N)=N4)c3)ncnc2n1 | 26 |
| C[C@@]1(c2cc(Nc3nccc4cc(C#N)cnc34)ccc2F)CS(=O)(=O)[C@@](C)(C2CC2)C(N)=N1 | 11 |
| COc1cnc2c(Nc3ccc(F)c([C@]4(C)CS(=O)(=O)[C@@](C)(C5CC5)C(N)=N4)c3)nccc2c1 | 2.9 |
| C[C@@]1(c2cc(Nc3nccc4cc(C#N)cnc34)ccc2F)CS(=O)(=O)[C@@](CF)(C2CC2)C(N)=N1 | 6.1 |

query: Give the observed efflux ratio at 3 h of COc1cnc2c(Nc3ccc(F)c([C@]4(C)CS(=O)(=O)C(C)(C)C(N)=N4)c3)nccc2n1 [Ex 47 of WO2014059185, reference compound] for UniProt Q6PSM0.
result: 7.9

query: Give the observed efflux ratio at 3 h of `COc1cnc2c(Nc3cc([C@]4(C)CS(=O)(=O)[C@@](C)(C5CC5)C(N)=N4)c(F)cn3)nccc2c1` for UniProt Q6PSM0.
result: 1.5

query: Give the observed efflux ratio at 3 h of `C[C@@]1(c2nc(Nc3nccc4cc(C#N)cnc34)ncc2F)CS(=O)(=O)[C@@](C)(C2CC2)C(N)=N1` for UniProt Q6PSM0.
result: 31

====

Observed pKi for soluble human BACE-1 catalytic domain (Homo sapiens (Human), UniProt P56817), reported per entry below.
Expect pKi as a plain number equal to -log10 of the molar concentration.

The cases that follow already have their pKi on record.
| CHEM_SMILES | REPORTED_VALUE |
| --- | --- |
| C[C@@]1(c2cc(Nc3nccc4cc(Br)cnc34)ncc2F)CS(=O)(=O)[C@@](C)(C2CC2)C(N)=N1 | 8.82 |
| COc1cnc2c(Nc3ccc(F)c([C@]4(C)CS(=O)(=O)[C@@](C)(C5CC5)C(N)=N4)c3)ncnc2n1 | 7.85 |
| COc1cnc2c(Nc3cnc(F)c([C@]4(C)CS(=O)(=O)[C@@](C)(C5CC5)C(N)=N4)c3)nccc2c1 | 8.16 |

query: Give the observed pKi of `CC#CCOc1cnc2c(Nc3cnc(F)c([C@]4(C)CS(=O)(=O)[C@@](CF)(C5CC5)C(N)=N4)c3)nccc2c1` for soluble human BACE-1 catalytic domain (Homo sapiens (Human), UniProt P56817).
result: 9.04

====

TGT: purified human Cathepsin-D (Homo sapiens (Human))
Sequence (P07339 65-412): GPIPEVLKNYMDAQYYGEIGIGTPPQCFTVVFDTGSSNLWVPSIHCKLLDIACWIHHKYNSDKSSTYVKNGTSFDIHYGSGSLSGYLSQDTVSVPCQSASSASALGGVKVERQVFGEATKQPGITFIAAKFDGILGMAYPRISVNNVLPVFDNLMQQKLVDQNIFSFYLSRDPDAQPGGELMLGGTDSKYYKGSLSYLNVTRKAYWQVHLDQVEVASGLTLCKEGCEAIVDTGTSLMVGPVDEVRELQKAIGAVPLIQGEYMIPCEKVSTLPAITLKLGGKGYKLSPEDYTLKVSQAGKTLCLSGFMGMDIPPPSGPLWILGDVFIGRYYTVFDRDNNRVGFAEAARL
EXPERIMENT_NOTES: Cathepsin-D Assay (time-resolved FRET);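 also: Europium-labelled peptide substrate with QSY7 quencher, cleavage read as 620 nm fluorescence after 30 min preincubation then 30 min reaction at 30 °C, pH 5.0, inhibition lowers signal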
Format: biochemical
ASSAY_SETUP: Assay 4; Ki calculated from IC50 by Cheng-Prusoff
Mark true only for Ki values smaller than 2000 nM; exact matches and larger values are false.

Below are worked cases with known answers.
| CHEM_SMILES | LABEL_VALUE |
| --- | --- |
| CC#CCOc1cnc2c(Nc3cnc(F)c([C@]4(C)CS(=O)(=O)[C@@](CF)(C5CC5)C(N)=N4)c3)nccc2c1 | true |
| COc1cnc2c(Nc3cc([C@]4(C)CS(=O)(=O)[C@@](C)(C5CC5)C(N)=N4)c(F)cn3)nccc2n1 | false |
| C[C@@]1(c2cc(Nc3ncnc4cc(C#N)cnc34)ccc2F)CS(=O)(=O)[C@@](C)(C2CC2)C(N)=N1 | false |
| COc1cnc2c(Nc3cc([C@]4(C)CS(=O)(=O)[C@@](C)(C5CC5)C(N)=N4)c(F)cn3)ncnc2c1 | false |
| CC#CCOc1cnc2c(Nc3cnc(F)c([C@]4(C)CS(=O)(=O)[C@@](CF)(C5CC5)C(N)=N4)c3)nccc2n1 | false |

Turning now to a further record.
query: Is 2000 nM strictly greater than the compound's reported Ki? compound: `C[C@@]1(c2cc(Nc3nccc4cc(C#N)cnc34)ccc2F)CS(=O)(=O)[C@@](C)(C2CC2)C(N)=N1`
result: true

====

TGT: UniProt:P56817
EXPERIMENT_NOTES: BACE-1 Cellular Assay (Aβ in HEK293-APPswe/lon cells)
Type: cell-based
ASSAY_SETUP: 4 hours
Method: Assay 3: BACE-1 Cellular Assay Certain compounds of the invention, identified in the tables herein, were determined to be potent inhibitors of BACE-1 in the following cellular assay. […] Aβ40 or Aβ42 are measured in 15 μl of media using a mesoscale based ELISA assay. […] Raw electrochemiluminescnce values are measured using a Mesoscale Sector Imager plate reader and are plotted as a function of compound concentration. […]
MEASUREMENT_TYPE: IC50 (nM)
Numbers only here, please. The scale is nM.

The cases that follow already have their IC50 on record.
| MOLECULE | REPORTED_VALUE |
| --- | --- |
| CC#CCOc1cnc2c(Nc3cc([C@]4(C)CS(=O)(=O)[C@@](C)(C5CC5)C(N)=N4)c(F)cn3)nccc2n1 | 6.3 |
| C[C@@]1(c2cc(Nc3nccc4cc(Br)cnc34)ncc2F)CS(=O)(=O)[C@@](C)(C2CC2)C(N)=N1 | 25 |
| C[C@@]1(c2cc(Nc3nccc4cc(C#N)cnc34)ccc2F)CS(=O)(=O)[C@@](CF)(C2CC2)C(N)=N1 | 24 |

query: Supply measured IC50 of `COc1cnc2c(Nc3ccc(F)c([C@]4(C)CS(=O)(=O)[C@@](C)(C5CC5)C(N)=N4)c3)ccnc2c1` in your reply.
result: 3.5

query: Supply measured IC50 of `C[C@@]1(c2cc(Nc3nccc4cc(O)cnc34)ncc2F)CS(=O)(=O)[C@@](C)(C2CC2)C(N)=N1` in your reply.
result: 4.9

query: Supply measured IC50 of `C[C@@]1(c2cc(Nc3ccnc4cc(F)cnc34)ncc2F)CS(=O)(=O)[C@@](C)(C2CC2)C(N)=N1` in your reply.
result: 32

query: Supply measured IC50 of `COc1cnc2c(Nc3ccc(F)c([C@]4(C)CS(=O)(=O)[C@@](C)(C5CC5)C(N)=N4)c3)ncnc2n1` in your reply.
result: 15

query: Supply measured IC50 of `COc1cnc2c(Nc3cnc(F)c([C@]4(C)CS(=O)(=O)[C@@](CF)(C5CC5)C(N)=N4)c3)nccc2c1` in your reply.
result: 99

====

Observed Ki for soluble human BACE-1 catalytic domain (Homo sapiens (Human), UniProt P56817), reported per entry below.
Numbers only here, please. The scale is nM.

| CHEM_SMILES | MEASUREMENT_TYPE | REPORTED_VALUE |
| --- | --- | --- |
| COc1cnc2c(Nc3cc([C@]4(C)CS(=O)(=O)[C@@](C)(C5CC5)C(N)=N4)c(F)cn3)nccc2c1 | Ki | 2.6 |

query: Supply measured Ki of `COc1cnc2c(Nc3ccc(F)c([C@]4(C)CS(=O)(=O)[C@@](C)(C5CC5)C(N)=N4)c3)ncnc2c1` in your reply.
result: 3.7

query: Supply measured Ki of `COc1cnc2c(Nc3cnc(F)c([C@]4(C)CS(=O)(=O)[C@@](CF)(C5CC5)C(N)=N4)c3)nccc2c1` in your reply.
result: 6.1

====

TGT: purified human autoBACE-2 (Homo sapiens (Human), UniProt Q9Y5Z0)
Sequence (Q9Y5Z0 63-466): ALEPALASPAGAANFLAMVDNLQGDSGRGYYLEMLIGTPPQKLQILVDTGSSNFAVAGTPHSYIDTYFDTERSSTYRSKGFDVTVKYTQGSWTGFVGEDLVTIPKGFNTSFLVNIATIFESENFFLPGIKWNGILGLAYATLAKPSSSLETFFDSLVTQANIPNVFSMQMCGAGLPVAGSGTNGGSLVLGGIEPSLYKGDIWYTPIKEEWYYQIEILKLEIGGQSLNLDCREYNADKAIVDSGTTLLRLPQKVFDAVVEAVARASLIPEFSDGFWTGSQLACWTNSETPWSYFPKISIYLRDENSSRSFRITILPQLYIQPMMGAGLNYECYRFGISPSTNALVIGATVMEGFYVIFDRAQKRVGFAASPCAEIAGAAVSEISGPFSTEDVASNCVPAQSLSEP
Measured pKi accompanies every entry in the list below.
Expect pKi as a plain number equal to -log10 of the molar concentration.

| CHEM_SMILES | REPORTED_VALUE |
| --- | --- |
| COc1cnc2c(Nc3ccc(F)c([C@]4(C)CS(=O)(=O)[C@@](C)(C5CC5)C(N)=N4)c3)nccc2c1 | 8.55 |
| C[C@@]1(c2cc(Nc3ncnc4cc(Br)cnc34)ccc2F)CS(=O)(=O)[C@@](C)(C2CC2)C(N)=N1 | 9.14 |

Shift focus to the following entry.
query: Give the observed pKi of `COc1cnc2c(Nc3ccc(F)c([C@]4(C)CS(=O)(=O)[C@@](CF)(C5CC5)C(N)=N4)c3)nccc2c1` for purified human autoBACE-2 (Homo sapiens (Human), UniProt Q9Y5Z0).
result: 8.44

====

Measured pKi accompanies every entry in the list below.
TGT: soluble human BACE-1 catalytic domain (Homo sapiens (Human))
Sequence (P56817 75-416): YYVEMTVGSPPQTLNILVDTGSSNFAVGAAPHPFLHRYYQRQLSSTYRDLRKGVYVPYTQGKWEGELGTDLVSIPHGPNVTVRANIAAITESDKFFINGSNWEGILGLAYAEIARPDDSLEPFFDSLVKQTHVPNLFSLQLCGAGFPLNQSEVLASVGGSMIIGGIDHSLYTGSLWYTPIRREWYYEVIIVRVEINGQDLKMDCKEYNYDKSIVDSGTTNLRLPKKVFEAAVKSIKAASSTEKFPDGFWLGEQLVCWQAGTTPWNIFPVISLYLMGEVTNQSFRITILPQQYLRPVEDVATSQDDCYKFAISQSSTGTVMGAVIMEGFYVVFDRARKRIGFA
Expect pKi as a plain number equal to -log10 of the molar concentration.

The cases that follow already have their pKi on record.
| MOLECULE | pKi |
| --- | --- |
| C[C@@]1(c2cc(Nc3nccc4cc(Cl)cnc34)ncc2F)CS(=O)(=O)[C@@](C)(C2CC2)C(N)=N1 [Example 27] | 8.00 |
| C[C@@]1(c2cc(Nc3ncnc4cc(Br)cnc34)ncc2F)CS(=O)(=O)[C@@](C)(C2CC2)C(N)=N1 [Example 38] | 8.09 |
| C[C@@]1(c2cc(Nc3ncnc4cc(C#N)cnc34)ccc2F)CS(=O)(=O)[C@@](C)(C2CC2)C(N)=N1 [Example 16] | 8.66 |

query: Give the observed pKi of C[C@@]1(c2cc(Nc3nccc4cc(Br)cnc34)ccc2F)CS(=O)(=O)[C@@](C)(C2CC2)C(N)=N1 [Example 17] for soluble human BACE-1 catalytic domain (Homo sapiens (Human)).
result: 8.85

query: Give the observed pKi of COc1cnc2c(Nc3ccc(F)c([C@]4(C)CS(=O)(=O)C(C)(C)C(N)=N4)c3)nccc2n1 [Ex 47 of WO2014059185, reference compound] for soluble human BACE-1 catalytic domain (Homo sapiens (Human)).
result: 8.48

query: Give the observed pKi of COc1ccccc1Nc1ccc(F)c([C@]2(C)CS(=O)(=O)C(C)(C)C(=N)N2)n1 [WO′426 Ex. 30a, reference compound] for soluble human BACE-1 catalytic domain (Homo sapiens (Human)).
result: 5.28

query: Give the observed pKi of C[C@@]1(c2nc(Nc3nccc4cc(C#N)cnc34)ncc2F)CS(=O)(=O)[C@@](C)(C2CC2)C(N)=N1 [Example 5] for soluble human BACE-1 catalytic domain (Homo sapiens (Human)).
result: 8.06

query: Give the observed pKi of COc1cnc2c(Nc3cc([C@]4(C)CS(=O)(=O)[C@@](C)(C5CC5)C(N)=N4)c(F)cn3)ncnc2n1 [Example 23] for soluble human BACE-1 catalytic domain (Homo sapiens (Human)).
result: 6.57
